src = the supplement of paper PMC7877785

Measured self-splicing fitness (ln) values are reported for all entries that follow.
test: self-splicing fitness, log relative to wild type (ln ratio); higher = more splicing; Tetrahymena group I intron in knt gene, E. coli kanamycin selection, DiMSum; sequences stand for … in CUCUCU…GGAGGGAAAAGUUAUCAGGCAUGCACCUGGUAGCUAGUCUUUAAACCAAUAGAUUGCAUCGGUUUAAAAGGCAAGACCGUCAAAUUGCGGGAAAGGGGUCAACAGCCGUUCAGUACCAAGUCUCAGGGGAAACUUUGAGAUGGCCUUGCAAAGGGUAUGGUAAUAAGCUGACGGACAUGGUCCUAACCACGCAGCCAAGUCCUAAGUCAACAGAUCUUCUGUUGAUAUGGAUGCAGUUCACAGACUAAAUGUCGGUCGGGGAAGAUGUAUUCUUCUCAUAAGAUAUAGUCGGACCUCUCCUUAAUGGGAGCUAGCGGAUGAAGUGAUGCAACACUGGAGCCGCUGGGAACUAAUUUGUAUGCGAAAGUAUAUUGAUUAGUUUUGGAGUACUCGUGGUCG; details: 30 °C;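 also: selection with 25 µg/mL kanamycin versus none on LB agar overnight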

| ORDERED_RESIDUES | self-splicing fitness (ln) |
| --- | --- |
| UAAGAGCAAUAUUACGGCGA | -2.7 |
| AUACAGCAAUAUUACGUCAU | -1.53 |
| UACAAGCAAUAUUACGUAUG | -3.68 |
| UAAAAGCAAUAUUACGGAUU | -2.12 |
| CUAGAGCAAUAUUACGGCUG | 0.203 |
| UCGCAGCAAUAUUACGCUGG | -1.76 |
| GGCGAGCAAUAUUACGAGGU | -3.57 |
| GGACAGCAAUAUUACGAAUG | -2.09 |
| GGAGAGCAAUAUUACGUGUG | -4.29 |
| GUAAAGCAAUAUUACGACUA | -0.649 |
| UAAUAGCAAUAUUACGCUGA | -2.81 |
| CUCGAGCAAUAUUACGCCUC | -1.8 |
| ACCCAGCAAUAUUACGAGCC | -3.18 |
| GAUAAGCAAUAUUACGGAGG | -1.43 |
| GUCUAGCAAUAUUACGCCCC | 0.281 |
| AGUAAGCAAUAUUACGUGCA | -1.36 |
| AACGAGCAAUAUUACGUACG | -4.19 |
| AGGCAGCAAUAUUACGCAUG | -2.69 |
| CGUGAGCAAUAUUACGUUUU | -3.42 |
| AAUGAGCAAUAUUACGGUUA | -3.02 |
| CCGGAGCAAUAUUACGUGAU | -2.17 |
| CUAAAGCAAUAUUACGAUCG | 0.485 |
| CAAUAGCAAUAUUACGAUUG | -3.32 |
| ACGGAGCAAUAUUACGAUAA | -3.89 |
| GAAUAGCAAUAUUACGAGGG | -3.39 |
| CCAGAGCAAUAUUACGCAGA | -2.8 |
| UUCAAGCAAUAUUACGAGAC | -3.86 |
| CCAGAGCAAUAUUACGUUAU | -3.68 |
| GUGCAGCAAUAUUACGCUGG | -2.41 |
| GGGCAGCAAUAUUACGCGAG | -0.948 |
| CUUAAGCAAUAUUACGUCCU | -3.41 |
| GGUAAGCAAUAUUACGCAGG | -2.05 |
| GCGUAGCAAUAUUACGUAGA | -3.35 |
| UCUCAGCAAUAUUACGGAAG | -1.82 |
| CUAUAGCAAUAUUACGUAAU | -2.07 |
| UGGCAGCAAUAUUACGGCCU | -1.91 |
| UAUUAGCAAUAUUACGGAUU | -1.74 |
| GUAUAGCAAUAUUACGCUUA | -2.39 |
| AUUUAGCAAUAUUACGAGAA | -2.09 |
| CGGGAGCAAUAUUACGCUAG | -2.57 |
| UGUCAGCAAUAUUACGGAGU | -3.6 |
| CGAUAGCAAUAUUACGCGUU | -3.13 |
